Cited source for all entries: patent US20210403595

target: human CD3 on Jurkat cells (human); experiment: FACS
Sequence (chain, as listed by the source, chain 1 of 2): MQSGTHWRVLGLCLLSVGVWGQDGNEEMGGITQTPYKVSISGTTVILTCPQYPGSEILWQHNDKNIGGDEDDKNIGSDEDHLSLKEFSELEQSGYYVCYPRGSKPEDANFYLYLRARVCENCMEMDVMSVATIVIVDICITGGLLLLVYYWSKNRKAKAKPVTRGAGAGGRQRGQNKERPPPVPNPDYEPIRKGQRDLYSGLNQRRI
Sequence (chain, as listed by the source, chain 2 of 2): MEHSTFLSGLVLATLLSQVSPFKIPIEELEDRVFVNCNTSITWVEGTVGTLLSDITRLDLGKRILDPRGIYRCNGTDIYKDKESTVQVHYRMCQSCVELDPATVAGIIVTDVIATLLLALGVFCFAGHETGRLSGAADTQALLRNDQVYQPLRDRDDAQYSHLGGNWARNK
MEASUREMENT_LABEL: EC50 (nM)
Give a bare numeral; the unit nM is implied.

Query (binder): H1H5761P (antibody, V domains shown) VH: QVQLVESGGGVVQPGRSLRLSCAASGFTFSSYGMHWVRQAPGKGLEWVAVISYDGSNKYYADSVKGRFTISRDYSKNTLYLQMNSLRAEDTAVFYCAKGAMVRGVPYNYYYGMDVWGQGTTVTVSS VL: DIQMTQSPSSLSASVGDRVTITCRASQGIRNDLGWFQQKPGKAPKRLIYAASSLQSGVPSRFSGSGSGTEFTLTISSLQPEDFATYYCLQHNSYPYTFGQGTKLEIK ; field requested: EC50
2.1
